The measurements presented in this section are drawn from ChEMBL document CHEMBL1201862.

Target: Trace amine-associated receptor 1 (Homo sapiens);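 note: inhibition of calcium response to PEA at EC80 in Galpha16 coupled cells measured by Fluo-8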
Sequence (Q96RJ0 whole entry): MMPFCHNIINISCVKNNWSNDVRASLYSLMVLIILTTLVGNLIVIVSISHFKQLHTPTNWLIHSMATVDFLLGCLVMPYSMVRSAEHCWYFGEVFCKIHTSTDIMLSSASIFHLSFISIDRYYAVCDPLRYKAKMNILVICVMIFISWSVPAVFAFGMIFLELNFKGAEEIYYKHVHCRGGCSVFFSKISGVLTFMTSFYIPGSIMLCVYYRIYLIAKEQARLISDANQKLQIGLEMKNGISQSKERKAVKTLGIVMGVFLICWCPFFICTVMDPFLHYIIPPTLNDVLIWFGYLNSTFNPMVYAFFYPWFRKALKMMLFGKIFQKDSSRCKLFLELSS
Experiment: Counterscreen for agonists of the human trace amine associated receptor 1 (hTAAR1): Fluorescence-based cell-based high throughput dose response assay to identify hTAAR1 agonist that also desensitize TAAR1 receptor response.
Format: functional
Active and inactive are the calls of the source.
Overview of reported IC50 across a group of compounds:

Asked: Observed IC50 on Trace amine-associated receptor 1 (Homo sapiens) for `Nc1nc(Nc2cccc(F)c2)nc2ccccc12` , please.
Given back: 1.65 µM (active)

Asked: Same for O=C(NCCc1ccccc1)C(c1ccncc1)N(C(=O)c1csnn1)C1CC1 (centres undefined)
Given back: 7.59 µM (active)

Asked: Same for `Clc1ccc(OCCNCCc2ccccc2)cc1`
Given back: 9.59 µM (active)

Asked: Same for Cc1cc(C2=NN=C(NCCc3ccccc3)SC2)c(C)n1CC1CCCO1 (centres undefined)
Given back: 2.84 µM (active)

* * *

Test: NIH3T3 cell viability loss – ATP luminescence, mouse fibroblasts, counter-screen, dose response (AID 2010);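 note: cells exposed to compound for about 90 hours before reading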
Type: functional, cell-based
Active and inactive are the calls of the source.
Overview of reported EC50 across a group of compounds:

CCC(C)(C)n1nnnc1C(c1cccnc1)N1CCC(Cc2ccccc2)CC1 (stereo not drawn) : 49 µM (active)
CCCC(=O)NC(c1ccccc1OC)c1ccc2cccnc2c1O (stereo not drawn) : 1.55 µM (active)
Cc1cc(C(=O)N2CCCC(N3CCN(c4ccccc4C)CC3)C2)n(C)n1 (stereo not drawn) : > 30 µM (not active)
O=S(=O)(c1ccc2ccccc2c1)N1CCC(c2nc(-c3ccncc3)no2)CC1 : > 60 µM (not active)
Cc1ccc2c(c1)C1CN(C)CCC1N2C(=S)NC(=O)c1ccc(Br)cc1 (stereo not drawn) : 41.5 µM (active)

Asked: Given `CCCCCCCn1c2c(c(=N)c3c1CCC3)CCCC2` , state its recorded EC50.
Given back: > 60 µM (not active)

Asked: Same for Cc1c2c(nc3ccccc13)CCC(C(C)(C)C)C2 (stereo not drawn)
Given back: > 60 µM (not active)

Asked: Same for `Cc1cc(N2CCN(c3ccccc3)CC2)nc(NCc2ccccc2)n1`
Given back: > 30 µM (not active)

* * *

Target: Heat shock factor protein 1 (Mus musculus)
Sequence (P38532 whole entry): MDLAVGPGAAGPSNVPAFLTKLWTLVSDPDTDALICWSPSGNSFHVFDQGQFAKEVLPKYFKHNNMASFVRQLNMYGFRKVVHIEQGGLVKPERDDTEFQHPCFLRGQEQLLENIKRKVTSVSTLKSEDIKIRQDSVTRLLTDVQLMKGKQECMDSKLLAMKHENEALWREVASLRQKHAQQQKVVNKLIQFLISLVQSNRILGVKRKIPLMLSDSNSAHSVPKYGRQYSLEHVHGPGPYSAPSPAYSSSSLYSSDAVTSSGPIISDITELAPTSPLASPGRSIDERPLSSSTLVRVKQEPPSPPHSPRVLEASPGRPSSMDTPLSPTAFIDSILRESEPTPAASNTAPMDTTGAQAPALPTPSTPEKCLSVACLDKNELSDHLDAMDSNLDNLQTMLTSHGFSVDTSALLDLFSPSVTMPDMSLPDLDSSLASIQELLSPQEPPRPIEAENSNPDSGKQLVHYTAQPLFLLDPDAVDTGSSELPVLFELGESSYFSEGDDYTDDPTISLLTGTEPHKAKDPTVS
Test: enhancement of HSF1-driven luciferase signal – cell-based, NIH3T3, luminescence, dose retest, confirmation (AID 435004);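 note: stress induced by proteasome inhibitor MG132 added 30 min after compound; luciferase reporter driven by HSF1 response element in NIH3T3 cells; actives raise luminescence as potentiators of the MG132 stress response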
Format: functional
Active and inactive are the calls of the source.
Outcome (select one): active, inactive

Recorded results for 6 compounds are shown here.
Cc1cccc(NC(=O)CCc2c(C)nn(-c3ccc(N4CCCCC4)nn3)c2C)c1 : inactive
Oc1nc(SCc2ccc(Cl)cc2)nc2ccsc12 : active
O=C(NNc1cccc(Cl)n1)Nc1ccc(Cl)cc1 : inactive
O=[N+]([O-])c1ccc(-c2csc(Nc3ccccc3)[n+]2Cc2ccccc2)cc1 : active
CCOc1ccc(CNC(=O)c2cccc(NC(=O)C3=C(C)OCCS3)c2)cc1 : inactive
O=C(CCn1c(=O)oc2ccccc21)Nc1ccccc1 : inactive

Below: the item to evaluate.
Asked: // outcome(item) with item = `Oc1cc(-c2ccc(Cl)c(Cl)c2)[nH]n1`
Given back: inactive

* * *

Biological target: Microphthalmia-associated transcription factor (Homo sapiens)
Sequence (O75030 whole entry): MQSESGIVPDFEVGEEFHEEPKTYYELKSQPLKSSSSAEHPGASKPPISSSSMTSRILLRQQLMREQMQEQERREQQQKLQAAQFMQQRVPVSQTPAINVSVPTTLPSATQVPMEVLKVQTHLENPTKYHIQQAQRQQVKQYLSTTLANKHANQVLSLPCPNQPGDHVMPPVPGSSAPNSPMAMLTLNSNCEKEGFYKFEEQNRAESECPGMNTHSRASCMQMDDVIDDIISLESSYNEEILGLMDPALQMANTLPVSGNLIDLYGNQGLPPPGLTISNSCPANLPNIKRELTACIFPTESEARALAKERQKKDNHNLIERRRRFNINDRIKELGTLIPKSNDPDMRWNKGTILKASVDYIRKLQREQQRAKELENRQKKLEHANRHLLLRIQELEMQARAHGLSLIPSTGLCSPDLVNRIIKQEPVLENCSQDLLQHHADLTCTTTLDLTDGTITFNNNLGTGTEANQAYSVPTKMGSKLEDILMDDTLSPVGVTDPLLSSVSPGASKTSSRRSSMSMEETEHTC
Experiment: reducers of TRPM1 reporter luminescence, concentration series – cell-based, SK-MEL-5, cherry-picked, set 3, MITF inhibitor project, dose response (AID 493073);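 note: SK-MEL-5 melanoma cells with luciferase driven by the MITF target TRPM1 promoter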
Assay type: functional
Calls of active or inactive are those of the source.
Overview of reported AC50 across a group of molecules:

Below: 2 molecules and their reported AC50.
CCC[n+]1c(C)sc2c3c(ccc21)CCCC3 : 9.87 µM (active)
CC1CCCC(NC(=O)NC(=O)CCl)C1C (stereo not given) : 12.4 µM (active)

Asked: Given `Cc1cc(C=C2C(=O)c3ccccc3C2=O)c(C)n1-c1ccccc1` , state its recorded AC50.
Given back: 3.78 µM (active)

Asked: Same for `CS(=O)(=O)c1nc(-c2ccc(F)cc2)cc(C(F)(F)F)n1`
Given back: 7.2 µM (active)

Asked: Same for `CCOC(=O)c1ccc(NC(=O)c2nc(S(=O)(=O)Cc3ccccc3)ncc2Cl)cc1`
Given back: 9.92 µM (active)
